Reference source: paper PMC7159882

Target: Kv7.1/KCNE1 (Homo sapiens)
Construct: cRNA encoding Kv7.1 (UniProt: P51787), KCNE1 (UniProt: P15382.1); expressed in transfected cells; host or cells: Xenopus laevis oocytes (cRNA injection, Kv7.1:KCNE1 3:1 by weight)
Assay: Two-electrode voltage clamp of Kv7.1/KCNE1 expressed in Xenopus oocytes
Type: cell-based
Conditions: 0.7 μM
measured.property: Gmax/Gmax0
Number only, please.

Example cases with answers are listed next.
[[record]]
entry_smiles = "CCCCC/C=C\\C/C=C\\CCCCCCCC(=O)NCC(=O)O"
measured_property = "Gmax/Gmax0"
assay_result = 1.3

[[record]]
entry_smiles = "CC/C=C\\C/C=C\\C/C=C\\C/C=C\\C/C=C\\C/C=C\\CCC(=O)NCC(=O)O"
measured_property = "Gmax/Gmax0"
assay_result = 1.5

[[record]]
entry_smiles = "CCCCC/C=C\\C/C=C\\CC/C=C\\CCCC(=O)NCC(=O)O"
measured_property = "Gmax/Gmax0"
assay_result = 1.2

[[record]]
entry_smiles = "CCCCC/C=C\\C/C=C\\C/C=C\\C/C=C\\CCCC(=O)NCCS(=O)(=O)O"
measured_property = "Gmax/Gmax0"
assay_result = 0.9

[[record]]
entry_smiles = "CCCCC/C=C\\C/C=C\\CCCCCCCC(=O)NCCS(=O)(=O)O"
measured_property = "Gmax/Gmax0"
assay_result = 1.1


Ask: For the compound CC/C=C\C/C=C\C/C=C\C/C=C\C/C=C\C/C=C\CCC(=O)NCCS(=O)(=O)O , what Gmax/Gmax0 is on record?
Result: 1.3

Ask: Likewise for CCCCC/C=C\C/C=C\CC/C=C\CCCC(=O)NCCS(=O)(=O)O ?
Result: 1.3

###

# ΔV0.5 (voltage dependence of inactivation) annotations
Molecular target: Nav1.5/β1 (Homo sapiens, UniProt Q14524)
Construct: Nav1.5 (UniProt: Q14524.1); expressed in transfected cells; host or cells: Xenopus laevis oocytes (cRNA injection, Nav1.5:β1 2:1 by weight)
Sequence (Q14524 whole entry): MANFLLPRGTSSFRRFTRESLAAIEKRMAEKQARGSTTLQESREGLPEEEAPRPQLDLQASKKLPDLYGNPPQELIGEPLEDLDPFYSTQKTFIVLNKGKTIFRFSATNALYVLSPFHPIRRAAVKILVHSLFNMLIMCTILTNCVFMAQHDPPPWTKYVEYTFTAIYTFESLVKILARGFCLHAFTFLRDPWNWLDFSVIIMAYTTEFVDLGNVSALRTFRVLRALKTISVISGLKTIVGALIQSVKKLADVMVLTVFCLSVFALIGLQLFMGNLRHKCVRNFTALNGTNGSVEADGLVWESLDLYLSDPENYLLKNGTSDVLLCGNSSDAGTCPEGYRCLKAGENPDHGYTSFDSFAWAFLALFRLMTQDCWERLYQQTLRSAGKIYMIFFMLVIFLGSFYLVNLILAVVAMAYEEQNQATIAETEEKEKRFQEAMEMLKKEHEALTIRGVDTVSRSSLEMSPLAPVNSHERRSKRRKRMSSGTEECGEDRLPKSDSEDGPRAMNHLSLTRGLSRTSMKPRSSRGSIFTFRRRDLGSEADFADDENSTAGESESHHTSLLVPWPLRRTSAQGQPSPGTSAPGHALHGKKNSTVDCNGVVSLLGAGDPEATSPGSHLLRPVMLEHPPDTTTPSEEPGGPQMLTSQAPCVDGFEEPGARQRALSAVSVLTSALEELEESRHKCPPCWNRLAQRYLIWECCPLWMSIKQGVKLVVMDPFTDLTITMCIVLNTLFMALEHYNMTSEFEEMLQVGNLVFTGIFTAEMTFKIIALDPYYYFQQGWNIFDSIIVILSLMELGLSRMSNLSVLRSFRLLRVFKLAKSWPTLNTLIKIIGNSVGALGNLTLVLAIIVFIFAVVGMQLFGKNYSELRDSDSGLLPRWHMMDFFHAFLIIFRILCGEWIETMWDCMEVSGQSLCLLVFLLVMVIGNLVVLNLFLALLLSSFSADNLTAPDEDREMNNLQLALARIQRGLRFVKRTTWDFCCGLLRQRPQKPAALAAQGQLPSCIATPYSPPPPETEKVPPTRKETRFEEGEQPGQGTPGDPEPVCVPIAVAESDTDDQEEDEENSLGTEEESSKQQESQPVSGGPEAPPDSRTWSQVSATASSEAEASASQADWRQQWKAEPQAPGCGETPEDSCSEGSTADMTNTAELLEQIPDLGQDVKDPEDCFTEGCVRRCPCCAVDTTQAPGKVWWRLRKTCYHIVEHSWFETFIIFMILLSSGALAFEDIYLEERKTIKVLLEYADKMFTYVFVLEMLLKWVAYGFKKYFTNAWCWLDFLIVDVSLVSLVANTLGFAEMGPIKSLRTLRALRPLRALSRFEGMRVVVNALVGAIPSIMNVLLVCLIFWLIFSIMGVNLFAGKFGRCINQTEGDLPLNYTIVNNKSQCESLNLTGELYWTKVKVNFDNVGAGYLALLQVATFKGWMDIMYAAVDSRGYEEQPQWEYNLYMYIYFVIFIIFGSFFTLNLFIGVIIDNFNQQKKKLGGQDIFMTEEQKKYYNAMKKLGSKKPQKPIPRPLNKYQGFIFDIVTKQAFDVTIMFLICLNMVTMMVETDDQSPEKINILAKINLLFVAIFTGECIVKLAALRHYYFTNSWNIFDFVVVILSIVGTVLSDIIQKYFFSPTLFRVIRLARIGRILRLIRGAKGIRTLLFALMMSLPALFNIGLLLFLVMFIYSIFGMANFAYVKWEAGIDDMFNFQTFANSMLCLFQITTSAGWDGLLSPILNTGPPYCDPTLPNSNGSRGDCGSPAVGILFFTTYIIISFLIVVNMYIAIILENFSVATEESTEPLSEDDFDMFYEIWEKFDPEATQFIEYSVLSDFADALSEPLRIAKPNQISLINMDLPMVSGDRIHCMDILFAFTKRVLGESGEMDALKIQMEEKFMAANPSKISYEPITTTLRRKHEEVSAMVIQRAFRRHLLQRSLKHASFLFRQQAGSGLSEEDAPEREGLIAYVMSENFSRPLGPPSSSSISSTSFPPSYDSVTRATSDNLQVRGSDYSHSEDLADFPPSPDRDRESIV
Sequence (Q07699 19-218 partner): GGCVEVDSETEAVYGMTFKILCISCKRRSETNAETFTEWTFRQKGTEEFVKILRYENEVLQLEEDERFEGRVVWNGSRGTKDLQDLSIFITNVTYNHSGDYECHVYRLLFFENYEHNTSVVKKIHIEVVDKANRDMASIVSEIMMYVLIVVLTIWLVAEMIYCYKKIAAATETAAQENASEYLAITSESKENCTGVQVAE
Assay: Two-electrode voltage clamp of Nav1.5/β1 expressed in Xenopus oocytes
Type: cell-based
Conditions: 0.2 μM
Your answer is read as mV, so omit the unit and give the number.

Example cases with answers are listed next.
[[record]]
entry_smiles = "CCCCC/C=C\\C/C=C\\C/C=C\\C/C=C\\CCCC(=O)NCCS(=O)(=O)O"
assay_result = -0.2

[[record]]
entry_smiles = "CCCCC/C=C\\C/C=C\\CC/C=C\\CCCC(=O)NCC(=O)O"
assay_result = 0.4

[[record]]
entry_smiles = "CCCCC/C=C\\C/C=C\\CCCCCCCC(=O)NCCS(=O)(=O)O"
assay_result = -0.3


# ---- query compound ----
Ask: For the compound CC/C=C\C/C=C\C/C=C\C/C=C\C/C=C\C/C=C\CCC(=O)NCC(=O)O , what ΔV0.5 (voltage dependence of inactivation) is on record?
Result: 0.3

###

# IKs I/I0 annotations
Target: Kv7.1/KCNE1 (Homo sapiens, UniProt P51787)
Construct: cRNA encoding Kv7.1 (UniProt: P51787), KCNE1 (UniProt: P15382.1); expressed in transfected cells; host or cells: Xenopus laevis oocytes (cRNA injection, Kv7.1:KCNE1 3:1 by weight)
Experiment: Two-electrode voltage clamp of Kv7.1/KCNE1 expressed in Xenopus oocytes
Assay type: cell-based
Conditions: 20 μM; relative current at 0 mV
Number only, please.

[[record]]
compound = "CC/C=C\\C/C=C\\C/C=C\\C/C=C\\C/C=C\\C/C=C\\CCC(=O)NCCS(=O)(=O)O [DHA-taurine]"
assay_result = 3.1

[[record]]
compound = "CCCCC/C=C\\C/C=C\\CCCCCCCC(=O)NCC(=O)O [Lin-glycine]"
assay_result = 5.3


Ask: For the compound CCCCC/C=C\C/C=C\C/C=C\C/C=C\CCCC(=O)NCCS(=O)(=O)O [N-AT, N-arachidonoyl taurine] , what IKs I/I0 is on record?
Result: 1.3

Ask: Likewise for CCCCC/C=C\C/C=C\CCCCCCCC(=O)NCCS(=O)(=O)O [Lin-taurine, Linoleoyl taurine] ?
Result: 10.4

Ask: Likewise for CCCCC/C=C\C/C=C\CC/C=C\CCCC(=O)NCCS(=O)(=O)O [Pin-taurine] ?
Result: 9.0

Ask: Likewise for CCCCC/C=C\C/C=C\CC/C=C\CCCC(=O)NCC(=O)O [Pin-glycine] ?
Result: 3.6

Ask: Likewise for CC/C=C\C/C=C\C/C=C\C/C=C\C/C=C\C/C=C\CCC(=O)NCC(=O)O [DHA-glycine, docosahexaenoyl glycine] ?
Result: 5.0
